Source: the supplement of paper PMC12764529

- protocol_description: folding stability dG unfold from chymotrypsin proteolysis; higher = more stable
Outcome: YES for folding stability dG unfold of at least 3 kcal/mol; NO for anything lower.

- query_sequence: "SAGGSAGGSAGKTYTFRVRIVDEETGEEKEIEVTAKSEEEAKKAAEELKKKYPNLKVELESAGGSAGGSAGG [r11_233_TrROS_Hall]"
  qualitative_label: "YES"
- query_sequence: "SAGGSAGGSAGKKKILLKFKSAEEALEAIKKGKTIKLKNGKTVKVKKVTLDKNGYLLIELSAGGSAGGSAGG [r11_48_TrROS_Hall]"
  qualitative_label: "NO"
- query_sequence: "SAVTLLSTEFVPEEGVVRLLFERPAPPDTTTFTFSVSVNGYPIESISLSVDPATNTATATATAKVPPGLSAG [r14_244_JUSTAS]"
  qualitative_label: "YES"
- query_sequence: "SAGGLVREAAAEAGATGVDIREEVPDPNGGTVVTVLPRPGLSPEEAAAVRARIEAAIAEREPGATVVLESAG [r5_101_JUSTAS]"
  qualitative_label: "NO"
- query_sequence: "SAGGMLEVTEEPLELGDRPVTRTTITLPDGTVVTVTTEAGTGAMTVTYPDGTTKTVTSEEDALAALLSAGGS [r8_168_JUSTAS]"
  qualitative_label: "NO"

Next up:
In plain terms: is recorded folding stability dG unfold at least 3 kcal/mol for SAGGSAGGSAGKPKKKPPKPKIETKTITVTITNKDGSKTTVTATIVRNKDTNELFIRISSSAGGSAGGSAGG [r11_1024_TrROS_Hall] ?
YES

* * *

Provide the recorded folding stability dG unfold for the entries that follow.
- protocol_description: folding stability dG unfold (combined trypsin and chymotrypsin); higher = more stable

// worked examples, folding stability dG unfold included
- query_sequence: "SAGGMPGVRPVVTVTVLVKFPGPDETKTVTITMRPEELAAGVTPEAAARRVAEALGHDIEILEIERKSAGGS [r16_554_JUSTAS]"
  folding stability dG unfold: "1.61 kcal/mol"
- query_sequence: "SAGGSAGGLEEELKLAKENPGEFEGVTVKLESVIEVTTTDPTTGKPTTKLVRVESEITFPPGLKSAGGSAGG [r6_560_JUSTAS]"
  folding stability dG unfold: "0.834 kcal/mol"
- query_sequence: "SAGMTIVIGAPPELSLEEAVEKAIEAVEALFPDKLKPGSKIKVIVRVYDPETGSVDEVTVEIDVPPGALSAG [r5_916_TrMRF]"
  folding stability dG unfold: "2.65 kcal/mol"

// switching to the query sequence
The sequence listed as SAPVVVVETIPDGGVLIVPAVFEPDKLLEYVEEIVNKIKPKGAEVEAKVIKVEPFEDFVVVTFEVKVKPSAG [r14_345_TrMRF] shows folding stability dG unfold equal to 1.68 kcal/mol

* * *

- protocol_description: folding stability dG unfold from trypsin proteolysis; higher = more stable
Please note: class 1 applies when folding stability dG unfold is 2 kcal/mol or greater, and class 0 applies otherwise.

Example entries and their recorded answers appear below.
- query_sequence: "SAGGSAGGSAGMEVILLEVDSEEEAEKLVKELSEKYGYPVKVEKDPENPKLVTLTIEKPKSAGGSAGGSAGG [r11_797_JUSTAS]"
  qualitative_label: "class 0"
- query_sequence: "SAGGSAGGSAGSLPIPISSESVSSLPESPLSVVTVKLPDGKTVVITVDLNSSSSSVTPLPSAGGSAGGSAGG [r17_369_JUSTAS]"
  qualitative_label: "class 0"
- query_sequence: "SAGGYKFTIIARFDSVEEAKEWVEEIIRDIFPDNGIEVEVEVETDPENGGVYVKATIEVPPPDPDDFSAGGS [r8_17_TrROS]"
  qualitative_label: "class 1"
- query_sequence: "SAGGSAGGSAGGITPEYVERARKEAQDQYPPGKEREIIIRNPDNGKEITIRYTPDKIEIMSAGGSAGGSAGG [r7_45_TrROS]"
  qualitative_label: "class 0"
- query_sequence: "SAGGSAETITVMIPPNFLKKLKDQGIKIPPGYPWITITVTYNPDGKIKIKVQIQPMPPVSPEDMKKSAGGSA [r15_322_TrROS]"
  qualitative_label: "class 0"

Now consider the entry below.
Quick check, folding stability dG unfold >= 2 kcal/mol? SAGGKKKVIEIKIEIKVPKEELKNMTKEEIAELLKKELEKKGIKIKKIEIVEIEIDGDTVTITIRIELSAGG [r13_432_TrROS_Hall]
class 1

* * *

Please respond with reported folding stability dG unfold for every item in the list.
- protocol_description: folding stability dG unfold from trypsin proteolysis; higher = more stable
Answers are plain numbers, in kcal/mol.

- query_sequence: "SAGGSAGGSAGGKRITIMFNTPEQIEELAENLGFDDIEVEPFPNEDGRPYVQVTIRLPPSAGGSAGGSAGGS [r10_494_TrROS]"
  result_value: -0.703

Field: folding stability dG unfold. Fill in for each record below.
1. ENYVAIEITMEMPNPDGMEMKFDLKIIKLDPDDGKFAIEMSMEMENPNGKPYRHPMWFVIPADELKEFLEAS [r1_371_TrROS]
2. SAGGSAGGSSTTPVTITVPESILDEIKKKAEELGIKVEVEIKESPENKKYATVTIEIPENVELSAGGSAGGS [r12_653_JUSTAS]
3. SAGGSAGGSAGELSLEEIKKLAPDETAVVKLPPSPETIVITVSTNPNGTLKIEIKRYPPGSAGGSAGGSAGG [r11_13_JUSTAS]

2.56
0.935
0.566

* * *

- protocol_description: folding stability dG unfold (combined trypsin and chymotrypsin); higher = more stable
assay_endpoint: folding stability dG unfold

For orientation, consider the following solved cases.
- query_sequence: "SAGGSAGGSPELKISFPGFEGAEVELDPETNIATVRVKLPDKELELKVRIDDDGITIVEVREVSAGGSAGGS [r20_60_TrMRF]"
  result_value: "1.94 kcal/mol"
- query_sequence: "SAGGSAGGSAMNVTTETRTDPVTGNTTTTTTYTDTGEVVTTTTTTPPETTTTTTTTTSLTKSAGGSAGGSAG [r3_126_JUSTAS]"
  result_value: "0.524 kcal/mol"
- query_sequence: "SAGGSSPLLSPVTLTREVPASEPMAPEEVEAFAAAVAAEVAAAGMTVDFSVERHPDREVLTVTVTVASSAGG [r13_442_JUSTAS]"
  result_value: "0.373 kcal/mol"
- query_sequence: "SAGGSAGGSTIPIRDPNREIEIVKHPDNMYRIEIEPNGGKREIILPPEAMQQKPITIEELIDQSAGGSAGGS [r20_90_TrROS]"
  result_value: "< -1 kcal/mol"

For every item in the list below, what is its measured folding stability dG unfold?
1. SAGGSLSNVTPLGTTPVTLPGSTVTITVYKSDTPGVVYVKIEYPETGVEKVRVLSPEELEKVIEELLSAGGS [r8_469_JUSTAS]
2. SAGGSSKLTFKDPNSDGTYSVTYDPSTGKANVTTSNGSSATISFEGDTITLLESSSVPPSPSNPTTSSAGGS [r16_687_JUSTAS]

3.07 kcal/mol
0.243 kcal/mol

* * *

So I've got a bunch of sequences here, and I need their folding stability dG unfold values.
- protocol_description: folding stability dG unfold from trypsin proteolysis; higher = more stable
Give bare numbers, in kcal/mol.

- query_sequence: "SAGGSAGGSAGGGSMVTVPVTTESTTTVPPGAPAVEAAPVDPATATVSTTTSSTSLVASSAGGSAGGSAGGS [r10_82_JUSTAS]"
  result_value: 1.22
- query_sequence: "SAGGSAGGSSPITIPIPLSELSEETLKKIAEENPEGETPIKIIKPDGTPVTIVVKPGGEIIGASAGGSAGGS [r12_1054_JUSTAS]"
  result_value: 0.728

Dear colleague, could you please provide folding stability dG unfold for the sequences listed below?
1. SAGGSAGGSAGGLKPGQKVAVFVKVKVKLYRDPATNELTEEVEIEDVFVVDAETKELLLSAGGSAGGSAGGS [r10_248_TrROS_Hall]
2. SAGGSAKVIVEELPDGSIKIYFPETGAVIVLNPETGEAVVFVNPKKKNNEPPSLDDVLKAAKEALGSAGGSA [r15_735_TrMRF]

1. 1.98
2. 0.413

* * *

- protocol_description: folding stability dG unfold from trypsin proteolysis; higher = more stable
assay_endpoint: folding stability dG unfold

These recorded examples may help you get a feel for the data.
- query_sequence: "SAGMMKIKITLENGEELTIEVSPEEKEKLKEGDIVEIRLEDGTVFKAEVVEVRPPGETVKIRITEAVPSAGG [r19_274_TrROS_Hall]"
  result_value: "1.67 kcal/mol"
- query_sequence: "SAGGSKKKKPEKPPVVLIKITVEETGKEITIPLEELRNMSAEELAKRIAEELRERYPGLKVRVEIVSAGGSA [r2_392_TrROS_Hall]"
  result_value: "1.49 kcal/mol"
- query_sequence: "SAGGMPIILLEEKKLPNGEPVYRITLLERDPNDGSWRPIEEDELKTKEEAEERAKAIAEKRGVELLKSAGGS [r16_512_JUSTAS]"
  result_value: "1.57 kcal/mol"
- query_sequence: "SMKDATSTSIGSRTYTYPNTDPSVSPEELKEKVIEEIKKEPELKAVEITVEVDPSTGTVTITINLTKLVKSA [r9_1001_JUSTAS]"
  result_value: "1.14 kcal/mol"
- query_sequence: "SAGGSAGGSAGEPEIEIEVEERDGELVLRARVRDRETGEEYEVVVRVRPDGPIEITEIRPSAGGSAGGSAGG [r17_113_TrROS_Hall]"
  result_value: "3.11 kcal/mol"

Parameters: items (list). Returns: folding stability dG unfold for each item.
1. SAGGSAGGSAGGGMSVKVTVKDPVNGTTSVYELSVPPGVSNVVINVKTPDNSTVTKVTLESAGGSAGGSAGG [r7_687_JUSTAS]
2. SAGGSAGGMKATFHPGPGRFPLGDKEYEVDLIYVTVTLPNGVPRVFVLTPDEVEELLPDLELEGSAGGSAGG [r6_561_TrMRF]
3. SAGGSAGGSAGGSAKIDLPFPAEITEIRPRPDGSVEIRLSFPTYTVTAIIPPNGIKIYGSAGGSAGGSAGGS [r4_280_TrMRF]
4. SAGGSAVVEIPIPPSSLDVRALIVPTDGPLTTVLVEETLPDGTPRVRLYRYDPARGEVRPLAEELPSAGGSA [r2_402_JUSTAS]
5. MSEEERKKAAEERSKPPPVEIKVEVEVVKNEDGEEYLRVRVTVVDPETGEVIEEREFVVRREDLEELLKALS [r1_415_TrROS_Hall]

["0.754 kcal/mol", "0.338 kcal/mol", "0.855 kcal/mol", "-0.671 kcal/mol", "3.7 kcal/mol"]
